B1: MFF (parent)
chain: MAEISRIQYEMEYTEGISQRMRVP

Variants of: B1
Assay Summary: protein stability index of a GFP-peptide fusion (GPS, HEK-293T) (PSI 1-6); higher = more stable;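 note: lentivirally expressed fusions sorted by FACS into six bins by GFP to DsRed ratio, PSI derived from sequencing read proportions per bin multiplied by bin number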
Protocol Conditions: c terminus: a fixed tail appended
Readout Label: protein stability index
Answers are plain numbers.

Biopolymer Sequence	protein stability index
MAEISRIQYEMEYTEGINQRMRVP [S18N]	2.98
MAEISRIQYEMEYTERISQRMRVP [G16R]	1.9
MAEISRIQYEMEYTEGISKRMRVP [Q19K]	2.44
MAEISRIQYEEEYTEGISQRMRVP [M11E]	4.06

Batch lookup, protein stability index per entry.
1. MAEISRIQYEMEYPEGISQRMRVP [T14P]
2. AAEISRIQYEMEYTEGISQRMRVP [M1A]
3. MAEISRIQIEMEYTEGISQRMRVP [Y9I]
4. LAEISRIQYEMEYTEGISQRMRVP [M1L]
5. MAEISRIQYEYEYTEGISQRMRVP [M11Y]
6. MAEISRIQYEMEYTEGISQRMVVP [R22V]
7. MAEISRIQYEMEYTEGRSQRMRVP [I17R]
8. MQEISRIQYEMEYTEGISQRMRVP [A2Q]

[2.55, 2.92, 1.71, 2.55, 2.67, 2.9, 3.67, 2.76]

Batch lookup, protein stability index per entry.
1. MAEISSIQYEMEYTEGISQRMRVP [R6S]
2. MAEISRIQYEMEYTEGISQRMRTP [V23T]
3. MAEISRIQYEMEYTEGGSQRMRVP [I17G]
4. MAEISRMQYEMEYTEGISQRMRVP [I7M]
5. MAEIWRIQYEMEYTEGISQRMRVP [S5W]

3.37
2.56
3.55
2.93
2.46

Batch lookup, protein stability index per entry.
1. MAEISRIQYEMEYTETISQRMRVP [G16T]
2. MSEISRIQYEMEYTEGISQRMRVP [A2S]

1: 2.22; 2: 2.5

Input KAEISRIQYEMEYTEGISQRMRVP [M1K] , output reported protein stability index.
2.97

Entry source: the supplement of paper PMC10567573
